- Assay Remarks: A qHTS for Small Molecule Inhibitors of Shiga Toxin; also: 0% is about no effect
- Conditions: Vero cells, Shiga toxin protein synthesis inhibition reporter; at 38.7 µM
About 27,000 (9.3%) of roughly 290,000 compounds were called active. Rule as the data show it: active = inhibition mostly above about 28% (no sharp cut-off); inactive = mostly below about 43%. The full list was thinned out, with actives kept by preference.
Result category, one only: Yes for active, No for inactive

Chem Smiles: COc1cc(C)cc(CN2CCC(Cc3ccccc3)CC2)c1O
Label Value: No
//
Chem Smiles: COc1ccccc1S(=O)(=O)c1c(C)cc(C)[nH]c1=O
Label Value: No
//
Chem Smiles: Cc1cccc(C(=O)NNC(=O)CSc2nnc(C(C)C)n2C)c1
Label Value: No
//
Chem Smiles: O=C(N/N=C/C=C/c1ccco1)c1cccs1
Label Value: Yes
//
Chem Smiles: CCN(CC)c1ccc(/C=N/NC(=O)CNC(=O)c2cccnc2)cc1
Label Value: No

Per the records of this test, what outcome belongs to CN(c1ccccc1)S(=O)(=O)c1cc(C(=O)Nc2nc3ccccc3[nH]2)ccc1Cl ? No

Please indicate how the test categorized Cc1nc2ccc(N3CCN(C)CC3)cc2nc1C . Yes

Short answer needed: outcome of this test for COc1cccc(C(=O)Nc2nnc(S(=O)(=O)N3CCCCC3)s2)c1 ? No

Tell me the assay call for COc1ccc(NC(=O)CSc2nc(C)cs2)cc1 please. Yes

For CC(=O)Nc1ccc(/C=N/NC(=O)c2cccs2)cc1 , which call appears in the assay record? Yes

###

- Assay Remarks: A qHTS for Small Molecule Inhibitors of Shiga Toxin; also: 0% is about no effect
- Conditions: Vero cells, Shiga toxin protein synthesis inhibition reporter; at 38.7 µM, hits give high values
Screen size: about 290,000 compounds; about 27,000 (9.3%) were called active. Many of the other results were omitted from the sample, so actives are more common in it than they were.
Parameter: inhibition (%)
Numbers only, in %.

Chem Smiles: OCCN1CCN(C(=S)c2ccc(-c3ccccc3)cc2)CC1
Units: %
Observed: 0.879

Provide reported inhibition for each item, in the same order as listed.
1. COc1cccc(N2C(=O)CN(Cc3ccccc3)C2=S)c1
2. COc1ccc(-n2c(-c3ccc(OC)c(OC)c3)n[nH]c2=S)cc1
3. COC(=O)c1cnc(Nc2cc(C)ccc2OC)c2ccccc12
4. Cc1noc(C)c1C(=O)NCCc1ccc(S(N)(=O)=O)cc1
5. Cc1cc(OC(=O)c2ccc(OC(C)C)cc2)c([N+](=O)[O-])c(=O)[nH]1
6. COc1cccc(NC(=O)NCCN2CCCCC2)c1
7. O=C(NCc1ccccc1Cl)C1CCN(S(=O)(=O)c2cccc3nonc23)CC1
8. CCN(Cc1ccccc1)C(=O)CCS(=O)(=O)c1ccc2c(c1)oc(=O)n2C

[24.3, -6.08, -8.41, 10.5, 13, 17.6, 9.83, 0.994]

# batch: return inhibition for each of the 2 compounds below
1. CCOC(=O)Cn1c(O)c(N=NC(=O)CNC(=O)Cc2ccccc2)c2ccccc21
2. Cc1[nH]c(C)c(S(=O)(=O)N2CCN(c3cccc(C(F)(F)F)c3)CC2)c1C(=O)N1CCCCC1

[13.1, -4.18]

###

Provide the recorded inhibition for the entries that follow.
- Assay Remarks: A qHTS for Small Molecule Inhibitors of Shiga Toxin; also: 0% is about no effect
- Conditions: Vero cells, Shiga toxin protein synthesis inhibition reporter; at 38.7 µM, hits give high values
Among all 290,000 compounds or so, about 27,000 (9.3%) were called active. What follows is part of a selection rich in actives, with near analogues and random picks from the rest.
Numbers only, in %.

Reference set, count: 5
Molecule: CCOC(=O)c1c(S(=O)(=O)NCC(=O)Nc2ccc(C)cc2)c(C)n(C)c1C
inhibition (%): -5.73
--
Molecule: CN(C(=O)COC(=O)c1nc(Cl)ccc1Cl)C1CCS(=O)(=O)C1 (stereo not drawn)
inhibition (%): -15.4
--
Molecule: COc1c(Cl)cc(C(=O)Nc2ccc(Cl)cn2)cc1Cl
inhibition (%): 8.12
--
Molecule: Nc1nnc(SCCN2C(=O)c3ccccc3S2(=O)=O)s1
inhibition (%): -8.37
--
Molecule: COc1ccc(OC)c(CNC(=O)c2cc(=O)[nH]c3ccc(S(=O)(=O)N4CCCC4)cc23)c1
inhibition (%): -3.87

Please go through the list and note inhibition for each molecule.
1. O=C(CNC(=O)c1ccccc1F)c1ccc(Br)cc1
2. CC(C)(C)C1C/C(=C/c2ccco2)C(=O)/C(=C/c2ccco2)C1 (stereo not drawn)
3. Cc1cccc(N=C2NN=C(c3c[nH]c4ccccc34)CS2)c1

1. 79.7
2. 46.5
3. 42.1

Go through the items and report each one's inhibition.
1. N#Cc1ccc(/C=C2\CCn3c2nc2cc(C(=O)O)ccc2c3=O)cc1
2. CC(C)CCn1cnc2c1c(=O)n(CC(=O)NC(N)=O)c(=O)n2Cc1ccccc1
3. COc1ccccc1C1C(C(N)=O)=C(C)Nc2nc(CCCO)nn21 (stereo not drawn)
4. COCCCN1C(=O)C(=O)/C(=C(/O)c2ccc(S(=O)(=O)N3CCOCC3)cc2)C1c1ccc(F)cc1 (stereo not drawn)
5. COc1cc(C(=O)OCC(=O)NC(C)CCc2ccccc2)cc(OC)c1OC (stereo not drawn)
6. COc1ccc(N(C)C(=O)CCS(=O)(=O)c2cccc3nsnc23)cc1

1. -9.62
2. 6.66
3. -12.2
4. -3.02
5. -9.96
6. -7.02

###

- Assay Remarks: A qHTS for Small Molecule Inhibitors of Shiga Toxin; also: 0% is about no effect
- Conditions: Vero cells, Shiga toxin protein synthesis inhibition reporter; at 38.7 µM, hits give high values
Hit rate of the full screen: of about 290,000 compounds, about 27,000 (9.3%) were called active. The entries come from a sample that favours actives as a whole.
Parameter: inhibition (%)
One number for each entry, in %.

Give measured inhibition for every item shown.
1. Cc1cccc(N2C(=O)N3[C@H](c4ccc(F)cc4)[C@@H]4C(=O)N(C5CCCCC5)C(=O)[C@@H]4[C@]3(Cc3ccccc3)C2=O)c1
2. Cc1csc(NC(=O)CSc2nc(=O)cc(N)n2-c2ccc(F)cc2)n1
3. Cn1ncc(Br)c1C(=O)NC1CCCC1
4. COc1ccccc1/C=C/C(=O)NC1CC2CCC1C2 (stereo not given)

-2.98
-2.89
-7.94
12.2

# batch size: 7; output inhibition per entry
1. Cc1nc(N)nc(SCc2ccc([N+](=O)[O-])cc2)c1N
2. O=C(Nc1cccc(Cl)c1N1CCOCC1)c1cccnc1
3. COc1cc(C(=O)NCc2nnc(SCC(=O)c3ccc(Cl)cc3)o2)cc(OC)c1OC
4. Cc1ccc(NC(=O)CSc2nnc(CNC(=O)c3ccccc3F)o2)cc1Cl
5. COc1ccc2[nH]cc(CCN3C(=O)c4ccc(C(=O)O)cc4C3=O)c2c1
6. COc1ccccc1C(=O)Nc1cccc(C(=O)N2CCOCC2)c1
7. CC(=C1C(=O)c2ccccc2C1=O)N1CCN(c2ccccn2)CC1

1: -4.97; 2: -2.36; 3: -10.7; 4: -10.8; 5: 60.8; 6: -11.1; 7: 2.68

Each molecule below has a reported value. Please supply its inhibition.
1. CC(Oc1cccc(Cl)c1)C(=O)NC1CC(C)(C)NC(C)(C)C1 (stereo not given)
2. O=S(=O)(c1ccccc1)c1nc(-c2ccccc2)oc1NCCCN1CCOCC1
3. COc1ccc(C[C@H](C(=O)O)N2C(=O)c3ccc(C(=O)O)cc3C2=O)cc1
4. COc1cccc(/C=C(/CC(=O)Nc2ccc(N3CCOCC3)cc2)c2nc3ccccc3s2)c1

-11.3
-13.1
2.25
90.3

For each entry beneath this line, provide reported inhibition.
1. COC(=O)C1(C)NC(c2ccccc2OC)C2C(=O)N(c3ccccc3)C(=O)C21 (stereo not given)
2. Cc1ccc2[nH]cc(CCCN3C(=O)c4ccccc4C3=O)c2c1
3. Cc1ccc2[nH]c3c(=O)n(CC(=O)NCCc4ccc(Cl)cc4)ncc3c2c1
4. CCC(C)N(C)C1CCN(C(=S)Nc2ccc(OC)cc2)CC1 (stereo not given)
5. CC(C)(C)c1ccc(Cn2nnc3c(=O)[nH]c(C4CCCN(C(=O)c5ccco5)C4)nc32)cc1 (stereo not given)
6. O=C(/C=C/c1ccco1)NC(=S)Nc1ccccc1Br

1. -11.2
2. 1.09
3. 21.6
4. -9.08
5. 2.02
6. 26.6

###

Could you please report measured inhibition for the items listed next?
- Assay Remarks: A qHTS for Small Molecule Inhibitors of Shiga Toxin; also: 0% is about no effect
- Conditions: Vero cells, Shiga toxin protein synthesis inhibition reporter; at 38.7 µM, hits give high values
Screen size: about 290,000 compounds; about 27,000 (9.3%) were called active. What follows is part of a selection rich in actives, with near analogues and random picks from the rest.
One number for each entry, in %.

Sample records with inhibition:
Molecule: O=C(Nc1nnc(-c2ccc(Cl)cc2)o1)c1ccccc1Br
inhibition / %: 16.2

Molecule: Cc1ccc(SCC(CC(C)C)N2CCN(CCc3ccccc3)CCC2=O)cc1 (stereo not drawn)
inhibition / %: 64.5

Which measured inhibition value corresponds to COC(=O)[C@]1(S(=O)(=O)c2ccccc2)C[C@@H]2ON=C(c3ccc(OC)cc3)[C@@H]2C1 ? 13.5
